target: HLA-A*24:02 (Homo sapiens, UniProt P04439, D101N/D140Y/D185E/E176V/E190D/F33S/G103R/G107R/I119L/I121M/I306V/K335N/L105A/L180Q/L300P/N151K/N90K/Q86E/Q94H/R106L/R138H/R89G/T104I/T345S/V100E/W191G/Y123F)
Assay type: binding
recorded-endpoint: Aff A*24:02 (ED50) (M)
Just the number please, in M, no unit attached.

Q: What Aff A*24:02 (ED50) value was documented for this substance, MYNYPTMLD [Rv0288_5–13m3] ?
Result: 2e-08

Q: Try this substance next: `YQSGLSIVM`
Result: 5e-07

Q: Can you handle QIMYNYPTM [Rv0288_3–11m1] next?
Result: 2e-06

Q: Ok, now `QWLSANRAV`
Result: 2e-06

Q: Now consider QT YKWETFL .
Result: 2e-08

Q: Same thing, different substance: MYNYPAMLD [Rv0288_5–13m2]
Result: 3e-08

Q: Do the same for IMYNYPTML [Rv0288_4–12m1] please
Result: 8e-07

Q: // same read-out, input: `AMKGDLQSS`
Result: 0.0004

====

target: HLA-A*02:01 (Homo sapiens, UniProt P04439, D140Y/D185E/D98H/E176V/E277Q/G131W/G231S/I119V/I121R/I166T/I218V/L300P/L318F/N151K/N90K/P208A/P217A/Q86G/Q94H/R138H/R169H/T345S)
Format: binding
recorded-conditions: percent relative the binding of positive control peptide FLPSDFFPSV; plate-bound monomer 0.5 µg/ml; duplicated experiments; positive binder >40%
Note: every record was labeled by where its Bind A*02:01 sits among bottom range = under 8%, center range = from 8% up to 40%, top range = 40% and over

Q: Into which category would you place AMASTEGNV [Rv3875_82–90] ?
Result: top range

Q: Same thing, different sequence: ALQNLARTI [Rv3875_68–76]
Result: top range

Q: And then TATELNNAL [Rv3875_61–69] , what is it?
Result: center range

Q: Param item: SGSEAYQGV [Rv3875_46–54]
Result: center range

Q: Could you do the same for AIQGNVTSI [Rv3875_17-25] , please?
Result: top range

Q: Please do the same for EAYQGVQQK [Rv3875_49–57] as well.
Result: bottom range

Q: Likewise for AYQGVQQKW [Rv3875_50–58] ?
Result: bottom range

Q: For AWGGSGSEA [Rv3875_42–50] then?
Result: bottom range

Q: Follow-up item: KLAAAWGGS [Rv3875_38-46]
Result: top range

Q: Can you handle RTISEAGQA [Rv3875_74–82] next?
Result: center range

Q: Repeat with MTEQQWNFA [Rv3875_1–9]
Result: center range

Q: Same question for SAIQGNVTS [Rv3875_16–24] please.
Result: bottom range

Q: For SLTKLAAAW [Rv3875_35–43] then?
Result: top range

Q: Repeat for the following sequence: QQWNFAGIE [Rv3875_4–12]
Result: top range

====

target: HLA-C*07:01 (Homo sapiens, UniProt P10321, K90N/S123Y)
Assay type: binding
recorded-conditions: percent relative the binding of positive control peptide […]; duplicated experiments; positive binder >40%
The label depends only on Bind C*07:01: t if it is at least 20%, f if it is smaller.

Q: Hi, just wondering whether `GQSSFYSDW` shows Bind C*07:01 of 20% or higher.
Result: f

Q: Ok, now `MGRDIKVQF`
Result: t

Q: Moving on to the next substance: `RAQDDYNGW`
Result: f

Q: Also `AVYLLDGLR` ?
Result: f

Q: Moving on to the next substance: IMYNYPTML [Rv0288_4–12m1]
Result: f

Q: Next substance up: `FLTSELPQW`
Result: f

Q: And what about the substance YNYPTMLGH [Rv0288_6–14m1] ?
Result: f

Q: And `SPACGKAGC` ?
Result: f

Q: Repeat with WQGDTGITY [Rv0288_43–51]
Result: f

Q: Then this substance: `AMKGDLQSS`
Result: t

Q: Also `GMGPSLIGL` ?
Result: t

Q: Please do the same for NGT HSWEYW as well.
Result: f

Q: Queued: `AYHPQQFIY`
Result: t

Q: `PNGTHSWEY` ?
Result: t

Q: Please answer likewise for `LKFQDAYNA`
Result: t

Q: Same lookup for `LDPSQGMGP` , please.
Result: f

Q: Can you handle `SLIGLAMGD` next?
Result: f

Q: Now try QAALQSAWQ [Rv0288_36–44] .
Result: f

Q: Could you do the same for `SSAMILAAY` , please?
Result: t

====

target: HLA-A*30:01 (Homo sapiens, UniProt P04439, D140H/D185E/E176W/F33S/G80R/H175R/K168Q/R138E/R41S)
Type: binding
recorded-conditions: percent relative the binding of positive control peptide KTKDIVNGL; duplicated experiments; positive binder >40%
recorded-endpoint: Bind A*30:01 (%)
The answer is to be given in %; state only the numeric part.

Q: // lookup Bind A*30:01 for AAWGGSGSE [Rv3875_41–49]
Result: 18

Q: And VQQKWDATA [Rv3875_54–62] ?
Result: 21

Q: Continue with IQGNVTSIH [Rv3875_18–26]
Result: 13

Q: Next sequence up: KLAAAWGGS [Rv3875_38-46]
Result: 0

Q: Try EAYQGVQQK [Rv3875_49–57] next.
Result: 0

Q: What do we get for SGSEAYQGV [Rv3875_46–54] ?
Result: 0

Q: // repeat for LQNLARTIS [Rv3875_69–77] and report
Result: 11

Q: Lookup MTEQQWNFA [Rv3875_1–9]
Result: 0

Q: Next sequence up: RTISEAGQA [Rv3875_74–82]
Result: 19

Q: AYQGVQQKW [Rv3875_50–58] , same question.
Result: 0

Q: And then GVQQKWDAT [Rv3875_53–61] , what is it?
Result: 9

Q: Could you do the same for QQKWDATAT [Rv3875_55–63] , please?
Result: 29

Q: And then LTKLAAAWG [Rv3875_36-44] , what is it?
Result: 13

Q: Moving on to the next sequence: LLDEGKQSL [Rv3875_28–36]
Result: 20

Q: Check SAIQGNVTS [Rv3875_16–24] too.
Result: 11

====

For each entry below, report its O-rate A*30:02 (t1/2) value.
target: HLA-A*30:02 (Homo sapiens, UniProt P04439, D101N/D140H/D185E/E176R/F33S/G80R/H175R/K168Q/Q94H/R138E/R41S/V100E)
Assay type: binding
recorded-conditions: time points 0-8 h
Kindly answer with a numeric value in h, unit omitted.

Q: Record request: O-rate A*30:02 (t1/2) value, item `YAGSLSALL`
Result: 0.9

Q: Thanks! And `GQSSFYSDW` ?
Result: 3.3

Q: Similarly, `QSSFYSDWY` ?
Result: 2.2

Q: // next record `AVFNFPPNG`
Result: 0.3

Q: Queued: `LAAYHPQQF`
Result: 1.1

Q: Now the same for AAAWGGSGS [Rv3875_40-48]
Result: 1.1

Q: Okay, and RTISEAGQA [Rv3875_74–82] ?
Result: 2

Q: Check `MGRDIKVQF` too.
Result: 0.3

Q: Proceed to NGT HSWEYW
Result: 1.6

Q: Then this substance: QQKWDATAT [Rv3875_55–63]
Result: 1.7

Q: Input `SSAMILAAY`
Result: 3.6

Q: Field entry: TATELNNAL [Rv3875_61–69]
Result: 2.6

Q: Ok, now TMLGHAGDM [Rv0288_10–18m1]
Result: 0.6

Q: Next substance up: ATATELNNA [Rv3875_60–68]
Result: 3.8

Q: Query `MKGDLQSSL` next
Result: 2.8

Q: Similarly, GVQQKWDAT [Rv3875_53–61] ?
Result: 1.3

Q: Another substance: `AYHPQQFIY`
Result: 1.9

Q: # iterate: KLVANNT RL
Result: 2.2

====

Exercise: state measured Aff C*07:01 (ED50) for each of the sequences provided.
target: HLA-C*07:01 (Homo sapiens, UniProt P10321, K90N/S123Y)
experiment: affinity assay (ED50)
Assay type: binding
Just the number please, in M, no unit attached.

Q: Recorded Aff C*07:01 (ED50) for `NTPAFEWYY` , please?
Result: 8e-09

Q: Proceed to `MGRDIKVQF`
Result: 8e-08

Q: Please answer likewise for VRAYHAMSS [Rv0288_66–74]
Result: 1e-06

Q: Now the sequence AMEDLVRAY [Rv0288_61–69]
Result: 5e-06
